Biological target: human CA-XII (Homo sapiens)
Construct: purchased Creative BioMart CA12-261H
Sequence (O43570 25-354): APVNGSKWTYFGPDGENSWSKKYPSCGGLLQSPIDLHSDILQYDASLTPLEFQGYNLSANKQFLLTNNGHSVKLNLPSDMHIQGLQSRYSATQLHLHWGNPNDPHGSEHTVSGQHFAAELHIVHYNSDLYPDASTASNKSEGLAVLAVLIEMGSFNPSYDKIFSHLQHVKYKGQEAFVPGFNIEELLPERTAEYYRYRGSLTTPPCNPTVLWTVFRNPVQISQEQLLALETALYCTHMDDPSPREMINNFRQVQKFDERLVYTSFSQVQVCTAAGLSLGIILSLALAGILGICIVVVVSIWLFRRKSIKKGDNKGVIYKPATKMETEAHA
Assay: Surface Plasmon Resonance (SPR) binding kinetics to recombinant human CA-XII (Biacore 8K, single-cycle kinetics, 1:1 binding model)
Details: Chelated Metal: Lu-175, 25° C., pH 7.4, read-out: CAXII KD
pKd: −log10 of the molar value.
parameter: pKd

// below: answered molecules
>  <molecule>
NS(=O)(=O)c1nnc(NC(=O)C23CC(c4cn(CCNC(=O)[C@@H]5CN(C(=O)CN6CCN(CC(=O)O)CCN(CC(=O)O)CCN(CC(=O)O)CC6)CCN5C(=O)C[C@H](NC(=O)C[C@H](NC(=O)CCCc5ccc6c(c5)CCCC6)C(=O)O)C(=O)O)nn4)(C2)C3)s1.[Lu+3] [Compound 109.36]

>  <result>
8.00 to 8.60

$$$$
>  <molecule>
NS(=O)(=O)c1nnc(NC(=O)C23CCC(c4cn(CCNC(=O)[C@@H]5CN(C(=O)CN6CCN(CC(=O)O)CCN(CC(=O)O)CCN(CC(=O)O)CC6)CCN5C(=O)CC[C@H](NC(=O)C[C@H](NC(=O)c5ccc(S(F)(F)(F)(F)F)cc5)C(=O)O)C(=O)O)nn4)(CC2)CC3)s1.[Lu+3] [Compound 109.58]

>  <result>
> 9.00

$$$$
>  <molecule>
Cc1cc(C(=O)Nc2nnc(S(N)(=O)=O)s2)ccc1-c1cn(CCNC(=O)C2(NC(=O)CNC(=O)C3(C(N)=O)CCN(C(=O)CCCC(C)(c4ccc(O)cc4)c4ccc(O)cc4)CC3)CCN(C(=O)CN3CCN(CC(=O)O)CCN(CC(=O)O)CCN(CC(=O)O)CC3)CC2)nn1.[Lu+3] [Compound 117.7]

>  <result>
< 8.00

$$$$
>  <molecule>
CC(CCCC(=O)N1CCC(C(N)=O)(C(=O)NCC(=O)N2CCN(C(=O)CN3CCN(CC(=O)O)CCN(CC(=O)O)CCN(CC(=O)O)CC3)C[C@H]2C(=O)NCCn2nnc(C34CC(C(=O)Nc5nnc(S(N)(=O)=O)s5)(C3)C4)c2C(=O)O)CC1)(c1ccc(O)cc1)c1ccc(O)cc1.[Lu+3] [Compound 107.58]

>  <result>
< 8.00

$$$$
>  <molecule>
NS(=O)(=O)c1nnc(NC(=O)CCCc2nnn(CCCC[C@H](NC(=O)C[C@H](Nc3cc(NC(=O)c4n[nH]c5ccc(O)cc45)cc(C(=O)O)c3)C(=O)O)C(=O)NCCOCCOCCNC(=O)CN3CCN(CC(=O)O)CCN(CC(=O)O)CCN(CC(=O)O)CC3)c2C(=O)O)s1.[Lu+3] [Compound 102.8]

>  <result>
8.60 to 9.00

$$$$
>  <molecule>
CC(CCCC(=O)N1CCC(C(=O)O)(C(=O)NCC(=O)N[C@@H](CCCCn2cc(C34CC(C(=O)Nc5nnc(S(N)(=O)=O)s5)(C3)C4)nn2)C(=O)NCCOCCOCCNC(=O)CN2CCN(CC(=O)O)CCN(CC(=O)O)CCN(CC(=O)O)CC2)CC1)(c1ccc(O)cc1)c1ccc(O)cc1.[Lu+3] [Compound 102.6]

>  <result>
< 8.00

$$$$

Lab note: CC(CCC(=O)N[C@@H](CC(=O)N[C@@H](CC(=O)N1CCN(C(=O)CN2CCN(CC(=O)O)CCN(CC(=O)O)CCN(CC(=O)O)CC2)C[C@H]1C(=O)NCCn1cc(-c2ccc(C(=O)Nc3nnc(S(N)(=O)=O)s3)cc2)nn1)C(=O)O)C(=O)O)(c1ccc(O)cc1)c1ccc(O)cc1.[Lu+3] [Compound 107.22] gave pKd of < 8.00
